target: various mutants of kinase EGFR (BaF3 cell lines stably transfected with kinase) (Homo sapiens, UniProt P00533, L858R/T790M); construct: expressed in transfected cells; host or cells: BaF3; assay: Growth inhibitory activity of compounds on BaF3 cell lines stably transfected with kinase (MTS, 48 h); assay type: cell-based; conditions: BaF3 cell line stably transfected with EGFR L858R/T790M, read-out: L858R/ T790M growth inhibitory activity IC50
Sequence (P00533 25-1210 T790M/L858R): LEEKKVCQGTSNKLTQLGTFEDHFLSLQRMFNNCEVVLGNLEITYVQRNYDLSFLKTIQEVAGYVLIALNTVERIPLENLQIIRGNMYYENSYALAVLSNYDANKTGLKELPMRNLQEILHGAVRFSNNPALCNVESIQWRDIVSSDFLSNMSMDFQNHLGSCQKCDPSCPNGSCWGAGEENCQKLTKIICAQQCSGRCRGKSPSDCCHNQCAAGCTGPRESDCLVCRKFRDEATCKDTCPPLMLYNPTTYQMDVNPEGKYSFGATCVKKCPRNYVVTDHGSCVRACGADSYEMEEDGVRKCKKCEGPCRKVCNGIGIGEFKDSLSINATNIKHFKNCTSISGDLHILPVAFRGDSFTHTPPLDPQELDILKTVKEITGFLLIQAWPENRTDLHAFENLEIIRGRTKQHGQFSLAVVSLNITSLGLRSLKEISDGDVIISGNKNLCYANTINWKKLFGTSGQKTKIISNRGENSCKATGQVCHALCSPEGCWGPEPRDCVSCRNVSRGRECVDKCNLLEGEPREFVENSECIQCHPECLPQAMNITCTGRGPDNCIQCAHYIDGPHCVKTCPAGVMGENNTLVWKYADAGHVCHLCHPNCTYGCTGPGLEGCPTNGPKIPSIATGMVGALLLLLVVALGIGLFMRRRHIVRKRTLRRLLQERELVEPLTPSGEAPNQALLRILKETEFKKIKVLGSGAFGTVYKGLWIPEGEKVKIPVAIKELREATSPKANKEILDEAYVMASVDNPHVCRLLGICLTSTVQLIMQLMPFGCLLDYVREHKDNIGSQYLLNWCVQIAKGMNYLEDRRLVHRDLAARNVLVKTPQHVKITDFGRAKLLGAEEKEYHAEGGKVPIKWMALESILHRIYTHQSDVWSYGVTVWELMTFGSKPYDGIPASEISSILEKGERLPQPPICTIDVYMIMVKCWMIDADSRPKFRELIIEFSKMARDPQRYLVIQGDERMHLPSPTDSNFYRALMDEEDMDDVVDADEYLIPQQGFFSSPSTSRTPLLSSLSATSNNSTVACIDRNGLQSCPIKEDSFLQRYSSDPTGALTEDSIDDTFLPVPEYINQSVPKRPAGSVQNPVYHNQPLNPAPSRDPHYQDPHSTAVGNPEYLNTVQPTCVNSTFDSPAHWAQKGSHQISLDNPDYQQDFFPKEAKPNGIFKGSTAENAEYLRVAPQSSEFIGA
Measured IC50, listed per entry for reference.

Just so you know, measured IC50 for COc1cc(N2CCC(N3CCN(C)CC3)CC2)ccc1Nc1ncc(Br)c(Nc2ccc3nccnc3c2NS(C)(=O)=O)n1 [Compound I-401] came out at ≤ 0.05 µM

Others:
Just so you know, measured IC50 for CCn1cc(Nc2ncc(Br)c(Nc3ccc4nccnc4c3N(C)S(C)(=O)=O)n2)c(C)n1 [Compound I-387] came out at 0.05 to 0.5 µM

Just so you know, measured IC50 for COc1cc(N2CCC(N(C)C)CC2)c(C)cc1Nc1nc(Nc2ccc3nccnc3c2N(C)S(C)(=O)=O)c2sccc2n1 [II-1-13] came out at 0.05 to 0.5 µM

Just so you know, measured IC50 for CCc1cc(Nc2nc(Nc3ccc4nccnc4c3N(C)S(C)(=O)=O)c3sccc3n2)c(OC)cc1N1CCC(N2CCN(C)CC2)CC1 [II-1-3] came out at 0.05 to 0.5 µM

Just so you know, measured IC50 for COc1cc(N2CCC(N3CCN(C)CC3)CC2)ccc1Nc1nc(Nc2ccc3nccnc3c2N(C)S(C)(=O)=O)c2sccc2n1 [II-1-1] came out at 0.5 to 2.5 µM

Just so you know, measured IC50 for CCc1cc(Nc2nc(Nc3ccc4nccnc4c3N(C)S(C)(=O)=O)c3cc[nH]c3n2)c(OC)cc1N1CCC(N(C)C)C1 (stereo not drawn) [II-2-17] came out at 0.05 to 0.5 µM

---

molecular target: various mutants of kinase EGFR (BaF3 cell lines stably transfected with kinase) (Homo sapiens, UniProt P00533); construct: other: BaF3 cells stably transfected with EGFR Δ19Del; MTS, 48 h; other: BaF3 cell line stably transfected with EGFR Δ19Del; assay: Growth inhibitory activity of compounds on BaF3 cell lines stably transfected with kinase (MTS, 48 h); type: cell-based; conditions: BaF3 cells stably transfected with EGFR Δ19Del, read-out: IC50, growth inhibition, Δ19Del
Sequence (P00533 with tags, fused parts or gaps DEL746-750): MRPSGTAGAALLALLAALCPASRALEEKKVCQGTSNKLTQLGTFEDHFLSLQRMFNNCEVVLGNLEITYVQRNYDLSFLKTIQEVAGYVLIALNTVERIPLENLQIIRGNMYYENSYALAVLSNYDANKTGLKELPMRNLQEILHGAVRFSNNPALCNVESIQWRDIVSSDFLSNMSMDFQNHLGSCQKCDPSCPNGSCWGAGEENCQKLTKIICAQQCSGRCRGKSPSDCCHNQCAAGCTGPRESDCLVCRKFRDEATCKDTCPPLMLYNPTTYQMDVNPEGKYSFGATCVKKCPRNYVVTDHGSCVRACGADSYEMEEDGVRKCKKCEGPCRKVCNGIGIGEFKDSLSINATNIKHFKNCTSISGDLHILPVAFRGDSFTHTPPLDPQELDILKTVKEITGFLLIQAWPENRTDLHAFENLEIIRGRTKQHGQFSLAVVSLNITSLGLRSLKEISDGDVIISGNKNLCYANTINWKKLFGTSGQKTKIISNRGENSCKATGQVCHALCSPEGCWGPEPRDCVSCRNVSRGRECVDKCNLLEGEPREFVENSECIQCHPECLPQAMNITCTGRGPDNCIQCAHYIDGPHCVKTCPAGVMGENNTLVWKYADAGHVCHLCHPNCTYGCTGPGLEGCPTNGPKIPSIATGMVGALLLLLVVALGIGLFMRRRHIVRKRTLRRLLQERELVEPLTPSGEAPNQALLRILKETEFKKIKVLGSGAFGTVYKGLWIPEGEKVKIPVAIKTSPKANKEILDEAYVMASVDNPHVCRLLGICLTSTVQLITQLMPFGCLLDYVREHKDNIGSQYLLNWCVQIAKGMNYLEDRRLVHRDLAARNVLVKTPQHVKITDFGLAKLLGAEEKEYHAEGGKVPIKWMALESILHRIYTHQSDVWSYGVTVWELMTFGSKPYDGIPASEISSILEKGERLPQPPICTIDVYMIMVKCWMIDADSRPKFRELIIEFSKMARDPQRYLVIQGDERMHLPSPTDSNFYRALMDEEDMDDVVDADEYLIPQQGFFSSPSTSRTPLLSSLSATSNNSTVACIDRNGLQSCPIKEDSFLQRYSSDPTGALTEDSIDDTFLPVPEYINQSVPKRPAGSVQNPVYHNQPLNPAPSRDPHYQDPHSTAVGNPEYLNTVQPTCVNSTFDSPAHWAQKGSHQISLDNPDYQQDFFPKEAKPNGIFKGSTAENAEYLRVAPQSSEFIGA
pIC50: −log10 of the molar value.
Measured pIC50, listed per entry for reference.

Just so you know, measured pIC50 for COc1cc(N2CCC(N(C)C)C2)c(C)cc1Nc1ncc(C(F)(F)F)c(Nc2ccc3nccnc3c2N(C)S(C)(=O)=O)n1 (stereo not drawn) came out at 6.30 to 7.30

Others:
Just so you know, measured pIC50 for `CCc1cc(Nc2ncc(Br)c(Nc3ccc4nccnc4c3N(C)S(=O)(=O)C(F)(F)F)n2)c(OC)cc1N1CCC(N2CCN(C)CC2)CC1` came out at 5.60 to 6.30

Just so you know, measured pIC50 for `COc1cc(N2CCC(N(C)C)CC2)c(C)cc1Nc1ncc(C2CC2)c(Nc2ccc3nccnc3c2N(C)S(C)(=O)=O)n1` came out at ≥ 7.30

---

Measured IC50, listed per entry for reference.
target: various mutants of kinase EGFR (BaF3 cell lines stably transfected with kinase) (Homo sapiens, UniProt P00533, T790M, form not given); construct: other: BaF3 cells stably transfected with EGFR Δ19Del/T790M; MTS, 48 h; other: BaF3 cell line stably transfected with EGFR Δ19Del/T790M; MTS, 48; assay: Growth inhibitory activity of compounds on BaF3 cell lines stably transfected with kinase (MTS, 48 h); type: cell-based; conditions: BaF3 cells stably transfected with EGFR Δ19Del/T790M, read-out: IC50, growth inhibition, Δ19Del/T790M
Sequence (P00533 with tags, fused parts or gaps DEL746-750/T790M, form open): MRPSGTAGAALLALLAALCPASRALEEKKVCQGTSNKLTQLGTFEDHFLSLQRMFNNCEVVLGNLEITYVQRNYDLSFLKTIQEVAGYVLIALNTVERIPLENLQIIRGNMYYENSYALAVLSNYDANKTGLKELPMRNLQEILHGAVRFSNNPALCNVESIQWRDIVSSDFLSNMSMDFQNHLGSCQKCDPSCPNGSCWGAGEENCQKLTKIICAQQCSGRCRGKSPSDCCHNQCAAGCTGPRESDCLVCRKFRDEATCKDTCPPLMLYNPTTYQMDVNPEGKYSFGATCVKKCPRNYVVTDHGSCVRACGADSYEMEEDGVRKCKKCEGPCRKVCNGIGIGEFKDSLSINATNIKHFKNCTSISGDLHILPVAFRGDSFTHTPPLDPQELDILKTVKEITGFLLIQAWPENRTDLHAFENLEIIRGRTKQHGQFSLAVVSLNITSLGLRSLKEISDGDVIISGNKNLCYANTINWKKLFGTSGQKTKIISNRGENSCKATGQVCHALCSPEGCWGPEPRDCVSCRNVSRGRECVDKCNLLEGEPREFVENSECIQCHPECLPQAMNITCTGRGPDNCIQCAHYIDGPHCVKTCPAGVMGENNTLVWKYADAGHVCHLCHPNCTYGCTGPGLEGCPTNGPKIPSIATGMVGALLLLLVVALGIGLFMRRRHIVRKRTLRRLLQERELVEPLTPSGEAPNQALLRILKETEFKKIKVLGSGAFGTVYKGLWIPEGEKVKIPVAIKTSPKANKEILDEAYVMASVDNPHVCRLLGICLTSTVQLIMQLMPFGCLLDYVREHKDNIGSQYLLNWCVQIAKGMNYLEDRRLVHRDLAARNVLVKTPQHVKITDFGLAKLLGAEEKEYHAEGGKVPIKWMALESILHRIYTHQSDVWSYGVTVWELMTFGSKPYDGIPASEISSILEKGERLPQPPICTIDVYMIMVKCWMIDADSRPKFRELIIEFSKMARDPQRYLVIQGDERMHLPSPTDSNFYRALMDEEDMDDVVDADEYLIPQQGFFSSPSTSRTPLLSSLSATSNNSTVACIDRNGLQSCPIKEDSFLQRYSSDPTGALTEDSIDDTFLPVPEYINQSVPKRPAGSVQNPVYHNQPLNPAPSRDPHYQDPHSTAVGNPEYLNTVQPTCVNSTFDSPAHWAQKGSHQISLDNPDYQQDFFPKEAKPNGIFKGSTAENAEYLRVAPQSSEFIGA

Solved cases below.
Just so you know, measured IC50 for `CCc1cc(Nc2ncc(Cl)c(Nc3ccc4nccnc4c3N(C)S(C)(=O)=O)n2)ccc1N1CCC(N2CCN(C)CC2)CC1` came out at ≤ 0.05 µM

Just so you know, measured IC50 for `CCc1cc(Nc2ncc(C(F)(F)F)c(Nc3ccc4nccnc4c3N(C)S(C)(=O)=O)n2)c(OC)cc1N1CCC(N(C)C)CC1` came out at ≤ 0.05 µM

Others:
Just so you know, measured IC50 for `COc1cc(N2CCC(N3CCN(C)CC3)CC2)c(CC2CC2)cc1Nc1ncc([N+](=O)[O-])c(Nc2ccc3nccnc3c2N(C)S(C)(=O)=O)n1` came out at 0.05 to 0.5 µM
